Biological target: hGcgR (Homo sapiens)
Sequence (P47871 26-477): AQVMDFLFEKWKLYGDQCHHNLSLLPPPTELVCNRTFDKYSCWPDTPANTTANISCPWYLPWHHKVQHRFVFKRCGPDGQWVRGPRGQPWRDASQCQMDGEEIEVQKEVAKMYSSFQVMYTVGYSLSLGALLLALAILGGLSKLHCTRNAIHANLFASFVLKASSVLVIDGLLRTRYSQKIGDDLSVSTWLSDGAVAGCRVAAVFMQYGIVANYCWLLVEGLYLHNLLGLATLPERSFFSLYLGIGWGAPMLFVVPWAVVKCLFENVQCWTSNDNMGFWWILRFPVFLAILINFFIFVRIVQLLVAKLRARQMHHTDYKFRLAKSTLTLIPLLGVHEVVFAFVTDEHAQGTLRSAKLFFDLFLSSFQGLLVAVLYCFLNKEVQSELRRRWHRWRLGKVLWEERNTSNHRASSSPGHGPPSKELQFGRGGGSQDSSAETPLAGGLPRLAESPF
Assay: Functional cAMP activation in the presence of 0.1% casein (no HSA);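 note: intracellular cAMP rise after 30 min at 37 °C, read by HTRF against a cAMP standard curve, scaled from buffer only (0%) to maximal control ligand response (100%)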
Assay type: cell-based
Settings: read-out: Relative cAMP EC50, hGcgR
Starred links: 1 amine or outer side, 2 acyl side, 3 side chain; linkers in the order of their positions; H or OH if unused. Non-standard residues stand in square brackets, D forms with d. Groups on a side chain read outwards from the residue. No end group written: not given here. *: point of attachment. C18 diacid = O=C(O)CCCCCCCCCCCCCCCCC(=O)*; αMePhe(2-F) = C[C@](N)(Cc1ccccc1F)C(=O)O; γGlu = O=C(O)[C@H](CCC(=O)[*:2])N[*:1]; αMe4Pal = C[C@](N)(Cc1ccncc1)C(=O)O; αMeY = C[C@](N)(Cc1ccc(O)cc1)C(=O)O; 4Pal = N[C@@H](Cc1ccncc1)C(=O)O; αMeL = CC(C)C[C@](C)(N)C(=O)O; αMeS = C[C@](N)(CO)C(=O)O; Orn = NCCC[C@H](N)C(=O)O; AEEA = NCCOCCOCC(=O)O; Aib = CC(C)(N)C(=O)O
Rule: EC50 below 2 nM gives Yes, anything at or above gives No.

>>> class_assignment("H-Y[Aib]QGT[αMePhe(2-F)]TSD[4Pal]SI[αMeL]LD[Orn]K([γGlu-γGlu-C18 diacid])AQ[αMe4Pal]EFI[dE][αMeY]LIEGGPSSGAPPPSGE-NH2 [Example 616]")
"No"
>>> class_assignment("H-Y[Aib]QGT[αMePhe(2-F)]TSD[4Pal]SILLD[Orn]K([γGlu-γGlu-C18 diacid])AQ[Aib]AFIEYLEEGGPSSGAPPPSGTE-NH2 [Example 513]")
"No"
>>> class_assignment("H-Y[Aib]QGT[αMePhe(2-F)]TSD[4Pal]SI[αMeL]LD[Orn]K([AEEA-γGlu-C18 diacid])AQ[αMe4Pal]EFI[dE][αMeY]LLEGGPSSGEPPPSGS-NH2 [Example 645]")
"No"
>>> class_assignment("Y[Aib]Q[dA]T[αMePhe(2-F)]TSD[4Pal]SI[αMeL]LD[Orn]K([AEEA-γGlu-C18 diacid])AQ[αMe4Pal][Orn]FI[dE][αMeY]LIEGGPSSGEPPPESE-NH2 [Example 765]")
"Yes"
>>> class_assignment("H-Y[Aib]QGT[αMePhe(2-F)]TSD[4Pal][αMeS]I[αMeL]LD[Orn]K([AEEA-γGlu-C18 diacid])AQ[αMe4Pal]EFI[dE][αMeY]LIEGGPSSGAPPPSGTGE-NH2 [Example 714]")
"Yes"

Is EC50 of H-Y[Aib]QGT[αMePhe(2-F)]TSD[4Pal][αMeS]I[αMeL]LD[Orn]K([AEEA-γGlu-C18 diacid])AQ[αMe4Pal]EFI[dE][αMeY]LIEGGPSSGAPPPSGSE-NH2 [Example 712] strictly below 2 nM? Yes

Check H-Y[Aib]QGT[αMePhe(2-F)]TSD[4Pal][αMeS]I[αMeL]LD[Orn]K([γGlu-γGlu-C18 diacid])AQ[αMe4Pal]EFI[dE][αMeY]LIEGGPSSGAPPPSGGGE-NH2 [Example 743] too. Yes

Param item: H-Y[Aib]QGT[αMePhe(2-F)]TSD[4Pal][αMeS]I[αMeL]LD[Orn]K([γGlu-γGlu-C18 diacid])AQ[Aib][Orn]FI[dE][αMeY]LSEGGPSSGEPPPSGTGE-NH2 [Example 518] No

Query H-Y[Aib]QGT[αMePhe(2-F)]TSD[4Pal][αMeS]I[αMeL]LD[Orn]K([AEEA-γGlu-C18 diacid])AA[Aib]EFI[dE][αMeY]LVEGGPSSGAPPPSGS-NH2 [Example 693] next No

Also H-Y[Aib]QGT[αMePhe(2-F)]TSD[4Pal]SI[αMeL]LD[Orn]K([AEEA-γGlu-C18 diacid])AQ[αMe4Pal][Orn]FI[dE][αMeY]LIEGGPSSGEPPPESE-NH2 [Example 677] , if possible. No
